# System: E. faecalis
# test-summary: MIC, serial dilution method (CLSI)
# Format: cell-based, Enterococcus faecalis
# run-conditions: E. faecalis; MH broth, 24 hours at 37° C.; set to 256 if growth at […]

{"compound": "CSc1ccc2c(c1)N(CCC1CCCC[N+]1(C)Cc1ccccc1)c1ccccc1S2 (stereo not drawn)", "MIC (µg/mL)": 8}
{"compound": "C=CC[N+](C)(C)CCC=C1c2ccccc2Sc2ccc(Cl)cc21", "MIC (µg/mL)": 128}
{"compound": "C[N+](C)(CCC=C1c2ccccc2Sc2ccc(Cl)cc21)Cc1ccccc1", "MIC (µg/mL)": 16}
{"compound": "C[N+](C)(CCCN1c2ccccc2Sc2ccc(Cl)cc21)Cc1ccccc1", "MIC (µg/mL)": 16}
{"compound": "CCOC(=O)CC[N+]1(C)CCCCC1CCN1c2ccccc2Sc2ccc(SC)cc21 (stereo not drawn)", "MIC (µg/mL)": 32}
{"compound": "CCOC(=O)CC[N+](C)(C)CCCN1c2ccccc2Sc2ccc(Cl)cc21", "MIC (µg/mL)": 64}
{"compound": "CC(CN1c2ccccc2Sc2ccccc21)[N+](C)(C)Cc1ccccc1 (stereo not drawn)", "MIC (µg/mL)": 128}
{"compound": "COC(=O)CCCCC[N+](C)(C)CCC=C1c2ccccc2Sc2ccc(Cl)cc21", "MIC (µg/mL)": 128}
{"compound": "COC(=O)CCCCC[N+](C)(C)C(C)CN1c2ccccc2Sc2ccccc21 (stereo not drawn)", "MIC (µg/mL)": 256}

---

Readings of MIC for the listed compounds
# Test system: S. aureus CC398
# test-summary: MIC, serial dilution method (CLSI)
# Type: cell-based, Staphylococcus aureus
# run-conditions: Staphylococcus aureus, MRSA, 24 h; read-out: MIC

{"compound": "CC(CN1c2ccccc2Sc2ccccc21)N(C)C.Cl (stereo not shown) [Compound S12, reference compound]", "measurement-unit": "µg/mL", "MIC": 128}
{"compound": "C=CC[N+](C)(C)C(C)CN1c2ccccc2Sc2ccccc21.[Br-] (stereo not shown)", "measurement-unit": "µg/mL", "MIC": 64}
{"compound": "CCCCC[N+](C)(C)CC/C=C1/c2ccccc2Sc2ccc(Cl)cc21.[Br-]", "measurement-unit": "µg/mL", "MIC": 4}
{"compound": "CC(C)[N+](C)(C)C(C)CN1c2ccccc2Sc2ccccc21.[Br-] (stereo not shown)", "measurement-unit": "µg/mL", "MIC": 16}
{"compound": "CCCCCCCCCCCC[N+](C)(C)C(C)CN1c2ccccc2Sc2ccccc21.[Br-] (stereo not shown)", "measurement-unit": "µg/mL", "MIC": 0.25}
{"compound": "CCCCCCCCCCCC[N+]1(C)CCCCC1CCN1c2ccccc2Sc2ccc(SC)cc21.[Br-] (stereo not shown)", "measurement-unit": "µg/mL", "MIC": 2}
{"compound": "CCCCC[N+](C)(C)C(C)CN1c2ccccc2Sc2ccccc21.[Br-] (stereo not shown)", "measurement-unit": "µg/mL", "MIC": 32}
{"compound": "CN(C)CC/C=C1/c2ccccc2Sc2ccc(Cl)cc21.Cl [Compound S34, reference compound]", "measurement-unit": "µg/mL", "MIC": 32}
{"compound": "CSc1ccc2c(c1)N(CCC1CCCC[N+]1(C)C(C)C)c1ccccc1S2.[Br-] (stereo not shown)", "measurement-unit": "µg/mL", "MIC": 8}
{"compound": "CC[N+](C)(C)CCCN1c2ccccc2Sc2ccc(Cl)cc21.[Br-]", "measurement-unit": "µg/mL", "MIC": 16}
{"compound": "CC[N+]1(C)CCCCC1CCN1c2ccccc2Sc2ccc(SC)cc21.[Br-] (stereo not shown)", "measurement-unit": "µg/mL", "MIC": 4}
{"compound": "CSc1ccc2c(c1)N(CCC1CCCC[N+]1(C)CCC(C)C)c1ccccc1S2.[Br-] (stereo not shown)", "measurement-unit": "µg/mL", "MIC": 2}
{"compound": "CC(C)[N+](C)(C)CCCN1c2ccccc2Sc2ccc(Cl)cc21.[Br-]", "measurement-unit": "µg/mL", "MIC": 16}
{"compound": "C[N+](C)(C)CCCN1c2ccccc2Sc2ccc(Cl)cc21.[I-]", "measurement-unit": "µg/mL", "MIC": 32}
{"compound": "CCCCC[N+]1(C)CCCCC1CCN1c2ccccc2Sc2ccc(SC)cc21.[Br-] (stereo not shown)", "measurement-unit": "µg/mL", "MIC": 2}
{"compound": "CC(C)CC[N+](C)(C)CC/C=C1/c2ccccc2Sc2ccc(Cl)cc21.[Br-]", "measurement-unit": "µg/mL", "MIC": 4}
{"compound": "C[N+](C)(C)CC/C=C1/c2ccccc2Sc2ccc(Cl)cc21.[I-]", "measurement-unit": "µg/mL", "MIC": 256}
{"compound": "CN(C)CCCN1c2ccccc2Sc2ccc(Cl)cc21.Cl [Compound S1, reference compound]", "measurement-unit": "µg/mL", "MIC": 32}
{"compound": "CC(C)CC[N+](C)(C)C(C)CN1c2ccccc2Sc2ccccc21.[Br-] (stereo not shown)", "measurement-unit": "µg/mL", "MIC": 16}
{"compound": "CC(C)CC[N+](C)(C)CCCN1c2ccccc2Sc2ccc(Cl)cc21.[Br-]", "measurement-unit": "µg/mL", "MIC": 16}
{"compound": "CC[N+](C)(C)CC/C=C1/c2ccccc2Sc2ccc(Cl)cc21.[Br-]", "measurement-unit": "µg/mL", "MIC": 32}
{"compound": "C=CC[N+](C)(C)CCCN1c2ccccc2Sc2ccc(Cl)cc21.[Br-]", "measurement-unit": "µg/mL", "MIC": 16}
{"compound": "CSc1ccc2c(c1)N(CCC1CCCC[N+]1(C)C)c1ccccc1S2.[I-] (stereo not shown)", "measurement-unit": "µg/mL", "MIC": 16}
{"compound": "CC[N+](C)(C)C(C)CN1c2ccccc2Sc2ccccc21.[Br-] (stereo not shown)", "measurement-unit": "µg/mL", "MIC": 64}
{"compound": "CC(CN1c2ccccc2Sc2ccccc21)[N+](C)(C)C.[I-] (stereo not shown)", "measurement-unit": "µg/mL", "MIC": 128}
{"compound": "CCCCC[N+](C)(C)CCCN1c2ccccc2Sc2ccc(Cl)cc21.[Br-]", "measurement-unit": "µg/mL", "MIC": 64}
{"compound": "CCCCCCCCCCCC[N+](C)(C)CCCN1c2ccccc2Sc2ccc(Cl)cc21.[Br-]", "measurement-unit": "µg/mL", "MIC": 0.25}
{"compound": "C=CC[N+]1(C)CCCCC1CCN1c2ccccc2Sc2ccc(SC)cc21.[Br-] (stereo not shown)", "measurement-unit": "µg/mL", "MIC": 4}

---

# Test system: Salmonella enteritidis
# test-summary: MIC, serial dilution method (CLSI)
# Type: cell-based
# run-conditions: Salmonella enteritidis; MH broth, 24 hours at 37° C.; set to 256 if growth at […]
value-type: MIC (mg/L)

{"compound": "CC(CN1c2ccccc2Sc2ccccc21)[N+](C)(C)Cc1ccccc1 (stereo not drawn)", "value-type": "MIC", "measurement-unit": "mg/L", "quantitative-result": 128}
{"compound": "C[N+](C)(CCCN1c2ccccc2Sc2ccc(Cl)cc21)Cc1ccccc1", "value-type": "MIC", "measurement-unit": "mg/L", "quantitative-result": 64}
{"compound": "CSc1ccc2c(c1)N(CCC1CCCC[N+]1(C)Cc1ccccc1)c1ccccc1S2 (stereo not drawn)", "value-type": "MIC", "measurement-unit": "mg/L", "quantitative-result": 64}
{"compound": "COC(=O)CCCCC[N+](C)(C)C(C)CN1c2ccccc2Sc2ccccc21 (stereo not drawn)", "value-type": "MIC", "measurement-unit": "mg/L", "quantitative-result": 256}
{"compound": "CCOC(=O)CC[N+](C)(C)CCCN1c2ccccc2Sc2ccc(Cl)cc21", "value-type": "MIC", "measurement-unit": "mg/L", "quantitative-result": 64}
{"compound": "COC(=O)CCCCC[N+](C)(C)CCC=C1c2ccccc2Sc2ccc(Cl)cc21", "value-type": "MIC", "measurement-unit": "mg/L", "quantitative-result": 128}
{"compound": "C=CC[N+](C)(C)CCC=C1c2ccccc2Sc2ccc(Cl)cc21", "value-type": "MIC", "measurement-unit": "mg/L", "quantitative-result": 128}
{"compound": "C[N+](C)(CCC=C1c2ccccc2Sc2ccc(Cl)cc21)Cc1ccccc1", "value-type": "MIC", "measurement-unit": "mg/L", "quantitative-result": 64}
{"compound": "CCOC(=O)CC[N+]1(C)CCCCC1CCN1c2ccccc2Sc2ccc(SC)cc21 (stereo not drawn)", "value-type": "MIC", "measurement-unit": "mg/L", "quantitative-result": 128}

---

Measured log10 of MIC accompanies every entry in the list below.
# Tested on: E. faecium
# test-summary: MIC, serial dilution method (CLSI)
# Assay type: cell-based, Enterococcus faecium
# run-conditions: E. faecium; MH broth, 24 hours at 37° C.; set to 256 if growth at […]
# Description: These inoculums were each in diluted 1:100 in Müller Hinton (MH) broth (Sigma, Copenhagen, Denmark). From the diluted inoculums 100 μl was transferred to each well in a 96-well plate and mixed with the compound to be MIC determined. The plate was incubated for 24 hours at 37° C. (without shaking). The MIC value was determined as the lowest concentration in which no bacterial growth could be visually detected. All MIC determinations were done in duplicates. […]
value-type: log10 of MIC (log10 of the value in mg/L)

{"compound": "COC(=O)CCCCC[N+](C)(C)C(C)CN1c2ccccc2Sc2ccccc21 (stereo not drawn)", "log10 of MIC": 2.11}
{"compound": "COC(=O)CCCCC[N+](C)(C)CCC=C1c2ccccc2Sc2ccc(Cl)cc21", "log10 of MIC": 1.81}
{"compound": "C=CC[N+](C)(C)CCC=C1c2ccccc2Sc2ccc(Cl)cc21", "log10 of MIC": 1.81}
{"compound": "CC(CN1c2ccccc2Sc2ccccc21)[N+](C)(C)Cc1ccccc1 (stereo not drawn)", "log10 of MIC": 1.81}
{"compound": "CSc1ccc2c(c1)N(CCC1CCCC[N+]1(C)Cc1ccccc1)c1ccccc1S2 (stereo not drawn)", "log10 of MIC": 0.90}
{"compound": "CCOC(=O)CC[N+](C)(C)CCCN1c2ccccc2Sc2ccc(Cl)cc21", "log10 of MIC": 1.51}
{"compound": "C[N+](C)(CCCN1c2ccccc2Sc2ccc(Cl)cc21)Cc1ccccc1", "log10 of MIC": 1.20}
{"compound": "CCOC(=O)CC[N+]1(C)CCCCC1CCN1c2ccccc2Sc2ccc(SC)cc21 (stereo not drawn)", "log10 of MIC": 1.51}
{"compound": "C[N+](C)(CCC=C1c2ccccc2Sc2ccc(Cl)cc21)Cc1ccccc1", "log10 of MIC": 1.20}

Where do the numbers come from? From patent US20220313656A1.
